- measurement.target: Cytochrome P450 2C19 (Homo sapiens)
- experimental.protocol: Cytochrome panel assay with activity outcomes
- condition.description: recombinant CYP, pro-luciferin dealkylation, luminescence, p450-cyp2c19; series mostly up to 57.1 µM
Out of some 16,000 compounds screened, about 5,800 (36%) were called active. About 23% were inconclusive and are not listed. Calls follow the shape of the dose curve; as a rule, active = well fitted curve in the direction sought with a large enough effect; inconclusive = small, poorly fitted or top-dose-only effect, or effect the other way; inactive = no such curve, though single readings can be large or run the other way. Some of the results follow.
Just give me one of these, please: active, inactive

As a guide, the following entries are already answered.
{"compound": "Cc1cccc(Cc2c(C)nc3nc(SCC(=O)NCc4ccco4)nn3c2C)c1", "measurement.target": "Cytochrome P450 2C19 (Homo sapiens)", "group.label": "active"}
{"compound": "O=C(Nc1ccccc1)N1CCCC2(CCN(C(=O)c3cnccn3)CC2)C1", "measurement.target": "Cytochrome P450 2C19 (Homo sapiens)", "group.label": "inactive"}
{"compound": "CCOC(=O)c1[nH]c2cc(OC)c(OC)cc2c1NC(=O)c1ccc2c(c1)OCO2", "measurement.target": "Cytochrome P450 2C19 (Homo sapiens)", "group.label": "inactive"}
{"compound": "CCn1c(=N)c(S(=O)(=O)c2ccc(F)cc2)cc2c(=O)n3ccccc3nc21", "measurement.target": "Cytochrome P450 2C19 (Homo sapiens)", "group.label": "active"}
{"compound": "COc1cccc(C(=O)NCCN2CCN(c3ccc(Cl)cc3)CC2)c1", "measurement.target": "Cytochrome P450 2C19 (Homo sapiens)", "group.label": "inactive"}

Q: Each compound tested received a call. Report the one for `CCOC(=O)c1[nH]c2cc3c(cc2c1NC(=O)CN1CCC2(CC1)OCCO2)OCO3` .
A: inactive

Q: Then this compound: `Cc1cccc(C(=O)NC(=S)N2CCN(C)CC2)c1`
A: inactive

Q: Then this compound: `Cc1cc(C)cc(C(=O)N(NC(=O)Nc2ccc(Cl)cc2)C(C)(C)C)c1`
A: active

Q: Then this compound: Cc1ccc(C2C3=C(CCCC3=O)Nc3nc(SCC(=O)NCc4ccco4)[nH]c(=O)c32)cc1 (configuration not stated)
A: inactive

Q: Then this compound: `Cc1ccc(OCCCN2C(=O)C(=O)c3cccc(C)c32)cc1`
A: active

Q: Then this compound: `Cc1ccc(COc2ccc(Br)cc2/C=N/O)cc1`
A: active

Q: Then this compound: CC1=C(C(=O)Nc2ccccc2)C(c2ccco2)NC(=S)N1 (configuration not stated)
A: active

Q: Then this compound: `COc1ccc2[nH]cc(CCNc3ncncc3-c3ccccc3C)c2c1`
A: active

Q: Then this compound: `O=C(c1ccc(Cl)cc1)N1CCCC(c2ccccc2)=N1`
A: active

Q: Then this compound: `O=[N+]([O-])c1ccc(C2=Nn3c(nnc3-c3ccc(Cl)cc3)SC2)o1`
A: active

Q: Then this compound: `CCOC(=O)c1[nH]c2cc(OC)c(OC)cc2c1NC(=O)c1nonc1C`
A: inactive

Q: Then this compound: `COc1cccc(-c2csc(N3CCN(C(=S)Nc4ccccc4)CC3)n2)c1`
A: active

Q: Then this compound: `COC(=O)c1[nH]c2cc(OC)ccc2c1NC(=O)c1nonc1C`
A: inactive

Q: Then this compound: `O=C(c1cnccn1)N1CCC2(CC1)CN(c1cccc(-c3ccccc3)c1)C2`
A: inactive

Q: Then this compound: `N[C@@H](Cc1cnc[nH]1)C(=O)O`
A: inactive

Q: Then this compound: `O=S(=O)(c1cccc(C(F)(F)F)c1)N1CCC(c2cc(-c3cccc4ccccc34)n[nH]2)CC1`
A: active

Q: Then this compound: `Cn1c(=N)c(S(=O)(=O)c2ccc(F)cc2)cc2c(=O)n3ccccc3nc21`
A: active
